# system.under.test: KRAS 4B G12C protein (Homo sapiens, UniProt P01116, G12C)
# Construct: This protein contained 188 amino acids in total, including an N-terminal 6-Histidine tag; made in house; host or cells: E. coli BL21
# test.name: In vitro covalent adduct formation (CAF) assay by LC-MS
# Type: binding
# condition.description: 60 minutes; compound 10 μM, protein 5 μM, 22° C.; percentage of protein bound by the compound
property.measured: CAF (10 minutes/60 minutes) at 10 micromolar: 60 minutes

C=CC(=O)N1CCN(c2nc(OC[C@@H]3CCCN3C)nc3c2CN(Cc2ccccc2CC(C)C)C3)C[C@@H]1CC#N :: 73%
C=CC(=O)N1CCN(c2nc(OC[C@@H]3CCCN3C)nc3c2CN(C2CCc4ccccc42)C3)[C@H](C#N)C1 (stereo partly drawn) :: 29%
C=CC(=O)N1CCN(c2nc(OC[C@@H]3CCCN3C)nc3c2CN(Cc2cccc4ncoc24)C3)C[C@@H]1CC#N :: 52%

Provide CAF (10 minutes/60 minutes) at 10 micromolar: 60 minutes for all items below, preserving their order.
1. C=CC(=O)N1CCN(c2nc(OC[C@@H]3CCCN3C(C)C)nc3c2CN(C2CCc4ccccc42)C3)C[C@@H]1CC#N (stereo partly drawn)
2. C=CC(=O)N1CCN(c2nc(OC[C@@H]3CCCN3C)nc3c2CN(Cc2cc(O)c(Cl)cc2C)C3)C[C@@H]1CC#N
3. C=CC(=O)N1CCN(c2nc(OC[C@@H]3CCCN3C)nc3c2CN(C2CCc4ccccc42)C3)C[C@@H]1Cc1ncc[nH]1 (stereo partly drawn)

1: 94%; 2: 76%; 3: 0%/ 0%

State the recorded CAF (10 minutes/60 minutes) at 10 micromolar: 60 minutes for every item in the following list.
1. C=CC(=O)N1CCN(c2nc(OC[C@@H]3CCCN3C)nc3c2CN(Cc2c(Cl)cccc2Cl)C3)C[C@@H]1CC#N
2. C=CC(=O)N1CCN(c2nc(OC[C@@H]3CCCN3C)nc3c2CN(C2CCc4ccccc42)C3)C[C@@H]1CSC (stereo partly drawn)
3. C=CC(=O)N1CC2CC(=O)CC(C1)N2c1nc(OC[C@@H]2CCCN2C)nc2c1CN(C1CCc3ccccc31)C2 (stereo partly drawn)
4. C=CC(=O)N1CCN(c2nc(OC[C@@H]3CCCN3C)nc3c2CN(Cc2cc(O)ccc2F)C3)C[C@@H]1CC#N
5. C=CC(=O)N1CCN(c2nc(OCCOC)nc3c2CN(C2CCc4ccccc42)C3)C[C@@H]1CC#N (stereo partly drawn)
6. C=CC(=O)N1CCN(c2nc(OC[C@@H]3CCCN3C)nc3c2CN(Cc2cc(O)ccc2F)C3)[C@@H](C)C1
7. C=C(F)C(=O)N1CCN(c2nc(OC[C@@H]3CCCN3C)nc3c2CN(Cc2c[nH]nc2C)C3)C[C@@H]1CC#N

100%
2%
0%/ 0%
99%
64%
92%
0%/ 0%

Provide CAF (10 minutes/60 minutes) at 10 micromolar: 60 minutes value for the following molecule: C=CC(=O)N1CCN(c2nc(OC[C@@H]3CCCN3C)nc3c2CN(Cc2ccccc2CC(F)(F)F)C3)C[C@@H]1CC#N
93%
